test: Determination of metabolic stability with human liver microsomes; type: in vitro ADME; details: pH 7.6; pooled human liver microsomes, 1 mg/ml protein, 1 μM test compound, 37° C.; read-out: In vitro stability in human liver microsome incubations t½
measurement.type: half-life at 1 μM (h)
Express your answer in h, writing the number without its unit.

Q: half-life at 1 μM for CN1C(=O)Cc2ccc(-c3cc(F)c(C[C@@H](C#N)NC(=O)[C@H]4N[C@@H]5CC[C@H]4C5)cc3F)cc21 [Example 31] ?
Ans: 1.5

###

molecular target: recombinant human DPPI (Cathepsin C) (Homo sapiens (Human), UniProt P53634); assay: Inhibition of human DPPI (Cathepsin C); conditions: substrate Gly-Arg-AMC
Sequence (P53634 231-394): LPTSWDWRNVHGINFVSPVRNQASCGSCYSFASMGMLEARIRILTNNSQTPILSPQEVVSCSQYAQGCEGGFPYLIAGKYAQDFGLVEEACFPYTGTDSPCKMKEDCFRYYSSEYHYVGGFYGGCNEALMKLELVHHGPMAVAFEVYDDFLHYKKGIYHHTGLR
Sequence (P53634 395-463): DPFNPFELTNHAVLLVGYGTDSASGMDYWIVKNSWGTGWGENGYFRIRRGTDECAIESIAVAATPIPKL
Sequence (P53634 25-134): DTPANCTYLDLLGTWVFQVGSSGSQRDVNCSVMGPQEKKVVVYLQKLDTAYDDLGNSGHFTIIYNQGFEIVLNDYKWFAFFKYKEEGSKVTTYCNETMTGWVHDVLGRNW
measurement.type: IC50 (nM)
Express your answer in nM, writing the number without its unit.

Q: IC50 for N#C[C@H](Cc1ccc(N2CCN(CC3CCOC3)CC2)cc1F)NC(=O)[C@H]1N[C@@H]2CC[C@H]1C2 (some centres unmarked) [Example 154] ?
Ans: 13.5

Q: Please answer likewise for CC(C)c1cc(-c2ccc(C[C@@H](C#N)NC(=O)[C@H]3N[C@@H]4CC[C@H]3C4)c(F)c2)ccc1[S+](C)[O-] (some centres unmarked) [Example 251]
Ans: 11.5

###

test system: neutrophil elastase activity in U937 cells; test: Determination of neutrophil elastase activity in U937 cytosolic lysate preparation after incubation with test compound; type: cell-based, human; conditions: Homo sapiens, U-937, read-out: Reduction of NE-activity in U937 cells IC50
Assign IC50 to each entry below.
Express your answer in nM, writing the number without its unit.

Q: IC50 for N#C[C@H](Cc1ccc(N2CCN(CC3CCOC3)CC2)cc1F)NC(=O)[C@H]1N[C@@H]2CC[C@H]1C2 (some centres unmarked) ?
Ans: 4.6

Q: Please answer likewise for CN1CCCN(S(=O)(=O)c2ccc(-c3ccc(C[C@@H](C#N)NC(=O)[C@H]4N[C@@H]5CC[C@H]4C5)c(F)c3)cc2)CC1
Ans: 0.8
